Tested on: MDA-MB-231 cells
Experiment: Cell viability assay, 24 hour treatment
Assay type: cell-based, human
Conditions: MDA-MB-231, 24 hours
Protocol: Cell cytotoxicity assays. […] In brief, breast cancer cells were seeded in 96 well-plates at a density of 10^4 cells/well in growth media. […] The fluorescence was excited at 560 nm and emission was recorded at 590 nm using a Spectra Max plus 384 Microplate Spectrophotometer (Molecular Devices, Sunnyvale, CA). Relative cell viability values were expressed as the percentage of the fluorescence recorded from wells containing treated cells compared to the control wells containing untreated cells. […]
Quantity Kind: IC50

Please look up its IC50: Cc1ncsc1-c1ccc(CNC(=O)C2CC(O)CN2C(=O)C(NC(=O)COCCOCCOCCOCC(=O)OC2CCC3C4CCc5cc(O)ccc5C4CCC23C)C(C)(C)C)cc1 (stereo not shown) [UI-EP001]
> 100 µM
